Tested on: human PMN (neutrophils)
Assay: Inhibition of FMLP-stimulated production of superoxide radical anions
Format: cell-based
Conditions: Neutrophil, read-out: IC50 O2^−
readout_name: IC50 (nM)

Some solved cases for reference:
- chem_smiles: "Cc1nn(C)c(Cl)c1S(=O)(=O)Oc1ccc2c(NC(N)=O)c(C(=O)c3ccc(F)cc3F)oc2c1"
  IC50 / nM: 60
- chem_smiles: "CN(C)S(=O)(=O)Oc1ccc2c(NC(N)=O)c(C(=O)c3cc(Cl)ccc3Cl)oc2c1"
  IC50 / nM: 35
- chem_smiles: "NC(=O)Nc1c(C(=O)c2ccc(Cl)cc2Cl)oc2cc(OS(=O)(=O)Cc3ccc(Cl)nc3)ccc12"
  IC50 / nM: 20

1: NC(=O)Nc1c(C(=O)c2ccc(Cl)cc2Cl)oc2cc(OS(=O)(=O)c3ccc(-c4ccccn4)s3)ccc12
2: NC(=O)Nc1c(C(=O)c2ccc(Cl)cc2Cl)oc2cc(OS(=O)(=O)c3cccc4cccnc34)ccc12
3: CC(=O)Nc1ccc(S(=O)(=O)Oc2ccc3c(NC(N)=O)c(C(=O)c4ccc(Cl)cc4)oc3c2)cc1
4: Cc1ccc(C(=O)c2oc3cc(OS(=O)(=O)c4cn(C)cn4)ccc3c2NC(N)=O)c(C)c1
List these items ordered by IC50, big to small. API: response body holds the labels in the requested order.
3, 1, 4, 2
(3: 65 nM, 1: 20 nM, 4: 7 nM, 2: 1 nM)
